# target.or.test.system: human bradykinin B2 receptor (hB2R) (Homo sapiens)
# Sequence (P30411 1-391): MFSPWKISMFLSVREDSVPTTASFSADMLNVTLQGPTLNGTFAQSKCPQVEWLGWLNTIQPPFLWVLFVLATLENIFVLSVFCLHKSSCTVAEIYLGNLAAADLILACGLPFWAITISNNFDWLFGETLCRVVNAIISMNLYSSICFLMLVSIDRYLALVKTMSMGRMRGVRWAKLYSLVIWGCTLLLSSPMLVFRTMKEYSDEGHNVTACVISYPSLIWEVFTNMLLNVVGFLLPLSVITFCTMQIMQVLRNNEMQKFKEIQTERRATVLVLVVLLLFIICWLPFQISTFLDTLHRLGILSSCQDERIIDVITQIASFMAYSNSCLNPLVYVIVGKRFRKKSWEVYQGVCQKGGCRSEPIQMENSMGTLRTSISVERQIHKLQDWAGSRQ
# assay.remarks: human bradykinin B2 receptor calcium mobilization (hB2R-CaM) assay
# particulars: antagonism of bradykinin (EC80) induced calcium mobilization, B2 Bradykinin Receptor Stable Cell Line HTS041C, 25 min pre-incubation; read-out: IC50-value towards human bradykinin B2 receptor (hB2R)
# Text: The following cell-based human bradykinin B2 receptor calcium mobilization (hB2R-CaM) assay was used to determine the antagonistic activity of compounds selected from the example compounds Nos. 1 to 107 towards human bradykinin B2 receptor (hB2R). The assay is defined herein as a standard in vitro B2 receptor activity assay, which can be used to determine IC50 values of the compounds according to the present invention, e. g. the compounds shown in Examples 1-13. […]
pIC50: −log10 of the molar value.
measured.property: pIC50

Here is how some compounds turned out for pIC50.
| compound | target.or.test.system | pIC50 |
| --- | --- | --- |
| Cc1cc(-n2cc(F)cn2)c2cccc(OCc3c(Cl)cc(F)cc3[C@H](C)N3C[C@H](C)NC(=O)C3=O)c2n1 | human bradykinin B2 receptor (hB2R) (Homo sapiens) | ≥ 8.00 |
| Cc1cc(-n2cc(F)cn2)c2cccc(OCc3c(Cl)cc(F)cc3[C@H](C)N3C[C@@H](O)CC3=O)c2n1 | human bradykinin B2 receptor (hB2R) (Homo sapiens) | ≥ 8.00 |

Ask | Name the recorded pIC50 for Cc1cc(-c2ncnn2C)c2cccc(OCc3c(Cl)cc(F)cc3[C@H](C)N3CCC(C)C3=O)c2n1 (single isomer, unassigned) .
Reply | ≥ 8.00

---

Entries and their measured pIC50 follow.
# target.or.test.system: human bradykinin B2 receptor (hB2R) (Homo sapiens, UniProt P30411)
# Sequence (P30411 1-391): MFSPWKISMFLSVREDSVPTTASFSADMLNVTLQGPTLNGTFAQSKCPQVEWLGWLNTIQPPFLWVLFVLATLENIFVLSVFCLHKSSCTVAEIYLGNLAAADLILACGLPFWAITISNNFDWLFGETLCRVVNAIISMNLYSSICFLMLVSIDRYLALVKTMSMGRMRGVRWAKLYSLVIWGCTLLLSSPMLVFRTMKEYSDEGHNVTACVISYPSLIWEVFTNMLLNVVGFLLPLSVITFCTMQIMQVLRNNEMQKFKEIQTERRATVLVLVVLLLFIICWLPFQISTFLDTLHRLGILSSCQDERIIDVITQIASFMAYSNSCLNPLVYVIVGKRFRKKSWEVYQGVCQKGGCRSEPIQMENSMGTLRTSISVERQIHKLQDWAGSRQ
# assay.remarks: human bradykinin B2 receptor calcium mobilization (hB2R-CaM) assay
# particulars: antagonism of bradykinin (EC80) induced calcium mobilization, B2 Bradykinin Receptor Stable Cell Line HTS041C, 25 min pre-incubation; read-out: IC50-value towards human bradykinin B2 receptor (hB2R)
pIC50: −log10 of the molar value.

Here is how some compounds turned out for pIC50.
| compound | endpoint.value |
| --- | --- |
| Cc1cc(-n2cc(F)cn2)c2cccc(OCc3c(Cl)cc(F)cc3[C@H](C)N3CCNCC3=O)c2n1 | 7.00 to 7.96 |
| CCN1C(=O)C(C)N([C@@H](C)c2cc(F)cc(Cl)c2COc2cccc3c(-n4cc(F)cn4)cc(C)nc23)C1=O (single isomer, unassigned) [compound 29] | 7.00 to 7.96 |
| Cc1cc(-n2cc(F)cn2)c2cccc(OCc3c(Cl)cc(F)cc3[C@H](C)N3C[C@@H](O)CCC3=O)c2n1 | ≥ 8.00 |
| Cc1cc(-c2ncnn2C)c2cccc(OCc3c(Cl)cc(F)cc3[C@H](C)N3C[C@@H](C)NC(=O)C3=O)c2n1 | ≥ 8.00 |

Ask | Name the recorded pIC50 for Cc1cc(-c2ncnn2C)c2cccc(OCc3c(Cl)cc(F)cc3[C@H](C)N3CC[C@H](Cl)C3=O)c2n1 .
Reply | ≥ 8.00

Ask | Follow-up entry: CC(=O)N1CCN([C@@H](C)c2cc(F)cc(Cl)c2COc2cccc3c(-n4cc(F)cn4)cc(C)nc23)C(=O)C1
Reply | 7.00 to 7.96

Ask | Follow-up entry: Cc1cc(-c2ncnn2C)c2cccc(OCc3c(Cl)cc(F)cc3[C@H](C)N3CC(=O)N(C)CC3=O)c2n1
Reply | 7.00 to 7.96
